- Tested on: rice (Diamant variety)
- procedure_details: Rice seed treatment with BHMPA salts: germinating power
- Type: in vivo
- test_context: rice seeds; solution concentration 1 · 10^−10%
For each record, write down the corresponding Length, sprout.
Answers are plain numbers, in cm.

Some compounds with recorded Length, sprout:
O.O.O=P([O-])(CO)CO.O=P([O-])(CO)CO.[Mn+2] [Mn-salt, Manganese BHMPA Salt]
3.0
O.O.O=P([O-])(CO)CO.O=P([O-])(CO)CO.[Co+2] [Co-salt, Cobalt BHMPA Salt]
3.2
O=P([O-])(CO)CO.O=P([O-])(CO)CO.[Ca+2] [Ca-salt, Calcium BHMPA Salt]
3.0

Please give Length, sprout, item by item, for the list that follows.
1. O=P([O-])(CO)CO.O=P([O-])(CO)CO.[Mg+2] [Mg-salt, Magnesium BHMPA Salt]
2. O=P([O-])(CO)CO.[Na+] [Na-salt, Sodium BHMPA Salt]

a:
1. 3.8
2. 3.5
